test: qHTS for Inhibitors of Inflammasome Signaling: IL-1-beta AlphaLISA Primary Screen; conditions: THP-1 LPS/ATP IL-1B secretion, 16 h; at 57.5 µM, hits give low values
Out of some 360,000 compounds screened, about 17,000 (4.7%) were called active. Roughly 5% stayed inconclusive and do not appear here. The sample holds actives, similar compounds and a random draw of the others, so the mix is not that of the screen.
Property label: activity change (%)
Hi! Could you send only the number? It should be in %, unit omitted.

### Prompt Param item = CC(C)(C)NC(=O)C(CCc1ccccc1)n1c(=O)c(-c2ccccc2)nc2ccccc21 (stereo not drawn) ; retrieve measured activity change.
### Response 0

### Prompt Param item = COc1c(O)cccc1-c1nnn(CCC(=O)OCC(=O)c2ccccc2)n1 ; retrieve measured activity change.
### Response 14.4

### Prompt Param item = CCCc1nc2ccccc2n1C(C)C(=O)NC(C)(C)C (stereo not drawn) ; retrieve measured activity change.
### Response 29

----------
Experiment: qHTS for Inhibitors of Inflammasome Signaling: IL-1-beta AlphaLISA Primary Screen
Conditions: THP-1 LPS/ATP IL-1B secretion, 16 h; at 57.5 µM
Text: Inflammasomes are a set of intracellular multi-protein complexes that enable autocatalytic activation of inflammatory caspases and drive the innate immune response to counter harmful agents. […] A qHTS assay, based on AlphaLISA technology, was developed to screen the Molecular Libraries Small Molecule Repository (MLSMR) to look for novel inflammasome inhibitors. The assay detects IL-1B using AlphaLISA anti-IL-1B acceptor and donor beads. […]
The campaign covered roughly 360,000 compounds. About 17,000 (4.7%) were called active. Not shown: some 5% with an inconclusive outcome. Rule as the data show it: active = activity change below about -50%; inconclusive = mostly about -30% to -49%; inactive = weaker than that. The entries come from a sample that favours actives as a whole.
Select the matching outcome among active, inactive

### Prompt Record request — test call for O=C(CCN1CCCCC1)Nc1ccc(F)c(F)c1
### Response inactive

### Prompt Record request — test call for COc1ccc(C(=O)NCC[N+](C)(C)C)cc1
### Response inactive

### Prompt Record request — test call for Cc1ccc2nc(SCC(=O)NC3CCCC3)[nH]c2c1
### Response inactive

### Prompt Record request — test call for Cc1ccc(Nc2c(O)nc[nH]c2=O)cc1C
### Response inactive

### Prompt Record request — test call for COc1cccc(NC(=O)COC(=O)/C=C/c2ccco2)c1
### Response inactive

### Prompt Record request — test call for CO[C@@H]1CN(C)C(=O)c2cc(NC(=O)C3CC3)ccc2OC[C@H](C)N(C(=O)CN2CCOCC2)C[C@@H]1C
### Response inactive

### Prompt Record request — test call for CCc1ccc(NC(=O)CN2CCC(C(=O)c3ccc(OC)cc3)CC2)cc1
### Response inactive

### Prompt Record request — test call for COCOc1cccc(CN2CCC(C)(Oc3ccc(SC)cc3)C2)c1 (configuration not stated)
### Response inactive

### Prompt Record request — test call for O=C(Nc1ccc(Cl)cc1)Nc1nnc(/C=C/c2ccccc2)s1
### Response inactive

### Prompt Record request — test call for COC(=O)[C@]12CCCCC=C1N(Cc1cccc3ccccc13)C(=O)[C@H](CC(=O)N1CCOCC1)C2
### Response inactive

### Prompt Record request — test call for CCOC(=O)CSc1nnc(CNc2ccc(F)cc2)o1
### Response inactive

### Prompt Record request — test call for O=c1c2c(nc3n1CCCCC3)sc1c(O)cccc12
### Response inactive

### Prompt Record request — test call for COc1ccc(OC)c(C(=O)c2ccc(C(=O)N3CCN(Cc4csc(C)n4)CC3)cc2)c1
### Response inactive

### Prompt Record request — test call for Cc1ccc(S(=O)(=O)N2[C@@H](Cc3ccccc3)CO[C@H]2CC(=O)OCc2ccccc2)cc1
### Response inactive

### Prompt Record request — test call for O=C(Nc1ccc(Cl)c(C(F)(F)F)c1)C1Cc2c(-c3ccccc3Oc3ccccc3)ccnc2O1 (configuration not stated)
### Response inactive

### Prompt Record request — test call for O=C(NCCN1CCN(C(=O)c2cccc([N+](=O)[O-])c2)CC1)C(=O)NCc1ccc(Cl)cc1
### Response inactive

### Prompt Record request — test call for O=C(Nc1ccc(S(=O)(=O)Nc2ccccn2)cc1)c1ccccc1
### Response inactive

### Prompt Record request — test call for COc1ccc(S(=O)(=O)N2CCC(C(=O)NCCC(=O)Nc3ccccc3OC)CC2)cc1
### Response inactive

### Prompt Record request — test call for C/C(CC(=O)Nc1ccc(Cl)cc1)=N\NC(=O)C(=O)NCCO
### Response inactive

### Prompt Record request — test call for COc1ccc(CC2(CO)CCN(Cc3cnn(C)c3)CC2)cc1
### Response inactive

### Prompt Record request — test call for O=[N+]([O-])c1cc(S(=O)(=O)NCCc2ccccn2)ccc1Cl
### Response active

### Prompt Record request — test call for Cc1cc(C)c(NC(=O)CSc2nc3ccncc3[nH]2)c(C)c1
### Response active

### Prompt Record request — test call for CCC(=O)Nc1ccc(C(=O)CSc2nnc(CNc3ccc(Cl)cc3)o2)cc1OC
### Response active

### Prompt Record request — test call for CCN(CC)C(=O)C1CCCN(Cc2cccc(Cl)c2)C1 (configuration not stated)
### Response inactive

### Prompt Record request — test call for O=C1NCC(Nc2ccccc2)C(=O)N1 (configuration not stated)
### Response inactive

### Prompt Record request — test call for COC(c1ccccc1)(c1ccccc1)C(Oc1nc(C)cc(C)n1)C(=O)O (configuration not stated)
### Response inactive

### Prompt Record request — test call for COc1ccc(C(NC(=O)C2CCN(CCCc3ccccc3)CC2)c2cccs2)cc1 (configuration not stated)
### Response inactive

### Prompt Record request — test call for C[C@H](NC(=O)CC[C@H]1O[C@@H](n2ccc(=O)[nH]c2=O)[C@H](O)[C@@H]1O)c1cccc2ccccc12
### Response inactive

### Prompt Record request — test call for CC1CCCCC12NC(=O)N(CC(=O)Nc1ccc(S(=O)(=O)Nc3ncccn3)cc1)C2=O (configuration not stated)
### Response inactive

### Prompt Record request — test call for COc1cc(C(O)c2nc(-c3cnn(C)c3)cs2)ccc1F (configuration not stated)
### Response inactive

### Prompt Record request — test call for N#Cc1c(N)nc2c3c(sc(=N)c2c1N)NC(=O)CC3c1ccccc1Cl (configuration not stated)
### Response inactive

### Prompt Record request — test call for Cc1c(C(=O)NCC(c2ccco2)N2CCCC2)oc2ccc(Cl)cc12 (configuration not stated)
### Response inactive
